tested on: Prostate cancer LNCaP cells; assay: Antibody cytotoxicity assay (Annexin V + PI), LNCaP; format: cell-based; settings: 1, 3 and 10 μg/ml, overnight
assayMetric: Induction of cell death (in words)

* 6D11: murine anti-human EpCAM monoclonal antibody (IgG1, K), hybridoma m338-6D11.8; VH SEQ ID NO:23, VL SEQ ID NO:25 (antibody, listed as Mus musculus, V domains shown) VH: EVQLVESGGDLVKPGGSLKLSCAASGFAFDSYGMSWIRQTPGTRLEWVATISSGGYYTYYEDNVKGRFIISRDNAKNTLDLQMSGLKSEDAATYYCARRGNYDVDYYAMDYWGQGTSVIVSS VL: DVVLTQIPLSLPVSLGDQASISCRSSQSLEHSNGNTYLHWYLQKPGQSPKLLIYKVSNRFSGVPDRFSGSGSGTDFTLKISRVEAEDLGVYFCSQSTHVPPWTFGGGTKLEFKR | substantial cell death
* 1G10: murine anti-human EpCAM monoclonal antibody (IgG1, K), hybridoma m290-1G10; VH SEQ ID NO:7, VL SEQ ID NO:9 (antibody, listed as Mus musculus, V domains shown) VH: QIQLVQSGPELKKPGETVKISCKASGYTFTNYGMNWVKQAPGKGFKWMGWINTYTGEPTYADDFKGRFAFSLETSASTAYLQINNLQNEDMATYFCARWGYDFDYWGQGTTLTVSS VL: QIVLTQSPAIMSSSPGEKVTMTCSASSSISYMNWYQQKPGTSPKRWIYDTSKLASGVPARFSGSGSGTSYSLTISSMEAEDAATYYCHQRSSYPYTFGGGTKLEIKR | substantial cell death
